- Tested on: DU-145 prostate
- EXPERIMENTAL DETAILS: NCI tumour cell line growth inhibition, 48 h
MEASURED ENDPOINT: TGI

A selection of reference data follows.
O=C(Nc1ccc(Br)cc1F)c1cc(F)ccc1O = 64.6 µM
O=C1C2SC34c5c2c2ccccc2n5CCC3CCCN14 (stereo not drawn) = > 100 µM
COC(=O)/C=C(\C(=O)OC)C1C(=O)Oc2c(C)c(=O)c3ccccc3n21 (stereo not drawn) = > 100 µM

For each of the compounds below, note its TGI.
1. CCCCC#CC1=C(Br)C(=O)OC1
2. CCOC1(OCC)C2C=CC1C(COS(=O)(=O)c1ccc(C)cc1)C2COS(=O)(=O)c1ccc(C)cc1 (stereo not drawn)
3. COc1cc(Nc2nc3ccccc3nc2C(=O)O)cc(OC)c1OC
4. Nc1ccc2c(c1)C(=O)N1CCC[C@H]1C(=O)N2
5. CC(=O)c1ccccc1NP(=O)(c1ccccc1)c1ccccc1
6. COC(=O)c1ccc2c(c1)nc(NC(=O)c1ccccc1)n2CCCc1ccccc1
7. Cc1ccc(/C=N/Nc2cc(C)c3cccc(C)c3n2)s1

Given back:
["2.34 µM", "> 100 µM", "> 100 µM", "> 100 µM", "> 100 µM", "> 100 µM", "> 100 µM"]

Record TGI per entry; entries follow.
1. C=CCc1cccc2cc(C(=O)NCc3ccccc3)c(=N)oc12
2. O=C(/C=C/c1ccccc1)CCC1C(=O)c2ccccc2C1=O
3. Cn1cc(C2=C(c3ccc(N)cc3)C(=O)NC2=O)c2ccccc21
4. Cc1ccc(SC2c3ccc(C)cc3Oc3nc(N)c(C#N)c(N)c32)cc1 (stereo not drawn)

Given back:
1. > 100 µM
2. > 100 µM
3. > 25 µM
4. 3.36 µM

Please give TGI for each item listed below.
1. Cn1c(I)c(C#CCO[Si](C)(C)C(C)(C)C)c(=O)[nH]c1=O
2. CC(=O)Nc1ccc(S(=O)(=O)N2C(=O)CCC2C(=O)Nc2ccc(Br)cc2)cc1 (stereo not drawn)
3. O=C1C=CC(=O)c2c1ccc1c3ccccc3n(CCCCCn3c4ccccc4c4ccc5c(c43)C(=O)C=CC5=O)c21
4. O=c1[nH]nnc2c1sc1ncccc12

Given back:
["28.6 µM", "15.8 µM", "> 100 µM", "> 100 µM"]

Field: TGI. Fill in for each record below.
1. Brc1ccc2[nH]cc(-c3csc(-c4c[nH]c5ccccc45)n3)c2c1
2. O=C(O)CCCc1nc2c(n1Cc1ccccc1)C(=O)c1ccccc1C2=O
3. COc1cccc(C2c3cc4c(cc3OC(N3CCCCC3)C2C)OCO4)c1O (stereo not drawn)
4. CCOC(=O)CCC(NC(=O)Cc1ccc(Nc2nc3cc(F)c(F)cc3nc2C(=O)OCC)cc1)C(=O)OCC (stereo not drawn)
5. c1ccc(-c2nnc(-c3ccccn3)s2)nc1
6. C/C=C(\C)C(=O)O[C@H]1C=CC(=O)O[C@H]1CCC(=O)[C@H](C)O
7. CC(=O)N(C(C)=O)c1ncc(-n2nc(-c3ccccc3)cc2-c2ccccc2)c(-c2ccccc2)n1
8. CO/N=C(\C)c1ccc(Nc2nc3ccccc3c3occc23)cc1

Given back:
1. 9.15 µM
2. > 100 µM
3. 96.9 µM
4. > 100 µM
5. > 100 µM
6. 33.1 µM
7. > 10 µM
8. 29.7 µM

Sourced from PubChem BioAssay (NCI)
